These measurements were taken from patent US10357477B2.

Experiment: Caco-2 permeability assay
Type: in vitro ADME
Settings: human, basolateral to apical, pH 7.4
Method: Cell Culture. The human colon adenocarcinoma cell line Caco-2 was purchased from ATCC (American Type Culture Collection, Manassas, Va.), and was cultured in a humidified atmosphere of 5% CO2 at 37° C. Caco-2 cells were cultured in DMEM with 10% FBS, 1% NEAA, 1% GlutaMax and 1% penicillin and streptomycin solution. […] The transepithelial electrical resistance (TEER) were assessed to reflect membrane integrity using a Millicells® ERS-2 (Millipore, USA). […]
Papp B→A at 80 min below 10 ×10⁻⁶ cm/s gives False; Papp B→A at 80 min at or above it gives True.

Ask: Is it the case that CNC(=O)c1cccc(Cn2nc(C)c(NC(=O)c3ccc(COc4ccc(C(F)(F)F)cc4C)cc3)c2C)c1 [Compound D10] has Papp B→A at 80 min reaching or exceeding 10 ×10⁻⁶ cm/s?
Result: True

Ask: Is it the case that CNC(=O)c1cccc(Cn2nc(C)c(NC(=O)c3ccc(COc4ccc(C(F)(F)F)cc4)cc3)c2C)n1 [Compound E1a] has Papp B→A at 80 min reaching or exceeding 10 ×10⁻⁶ cm/s?
Result: True

Ask: Is it the case that CNC(=O)c1cccc(Cn2nc(C)c(NC(=O)c3ccc(COc4ccc(C(F)(F)F)cc4)cc3)c2C)c1 [Compound D9c] has Papp B→A at 80 min reaching or exceeding 10 ×10⁻⁶ cm/s?
Result: True

Ask: Is it the case that CNC(=O)c1cccc(Cn2nc(C)c(NC(=O)c3ccc(COc4ccc(C(F)(F)F)cc4C)cc3)c2C)n1 [Compound E1b] has Papp B→A at 80 min reaching or exceeding 10 ×10⁻⁶ cm/s?
Result: False

Ask: Is it the case that CNC(=O)c1cc(Cn2nc(C)c(NC(=O)c3ccc(COc4ccc(C(F)(F)F)cc4)cc3)c2C)ccn1 [Compound E2a] has Papp B→A at 80 min reaching or exceeding 10 ×10⁻⁶ cm/s?
Result: False

Ask: Is it the case that CNC(=O)c1cc(Cn2nc(C)c(NC(=O)c3ccc(COc4ccc(C(F)(F)F)cc4C)cc3)c2C)ccn1 [Compound E2b] has Papp B→A at 80 min reaching or exceeding 10 ×10⁻⁶ cm/s?
Result: False

* * *

Test system: Panc-1 cells
Assay: Cell viability assay (MTT) in Panc-1 cells
Assay type: cell-based
Details: Homo sapiens, antiproliferative activity, 72 h
quantity-measured: log10 of EC50 (log10 of the value in nM)
Reminder: these figures are log10 of reported EC50, in nM before transformation.

Ask: What value of log10 of EC50 has been recorded for this entry: Cc1nn(Cc2ccccc2)c(C)c1NC(=O)c1ccc(COc2ccccc2)cc1 [Compound A1]
Result: 3.95

Ask: What value of log10 of EC50 has been recorded for this entry: CNC(=O)c1ccc(Cn2nc(C)c(NC(=O)c3ccc(COc4ccccc4)cc3)c2C)cc1 [Compound A3a]
Result: 4.56

Ask: What value of log10 of EC50 has been recorded for this entry: CNC(=O)c1cccc(Cn2nc(C)c(NC(=O)c3ccc(COc4ccccc4C(F)(F)F)cc3)c2C)c1 [Compound D9a]
Result: 2.64

Ask: What value of log10 of EC50 has been recorded for this entry: CNC(=O)c1cccc(Cn2nc(C)c(NC(=O)c3ccc(COc4ccccc4F)cc3)c2C)c1 [Compound D6a]
Result: 3.48

Ask: What value of log10 of EC50 has been recorded for this entry: CNC(=O)c1cccc(Cn2nc(C)c(NC(=O)c3ccc(COc4cccc5ccccc45)cc3)c2C)c1 [Compound D2]
Result: 3.11
